- Tested on: P94_40
- Protocol description: qHTS profiling for inhibitors of Plasmodium falciparum proliferation (AID 504749); also: nearly all actives have a fitted effect of over 60% in size
- Applied conditions: P. falciparum in erythrocytes, SYBR Green DNA, 72 h; series mostly up to 28.7 µM
Records with an inconclusive call do not appear. Calls of active or inactive are those of the source. Calls follow the shape of the dose curve; as a rule, active = well fitted inhibition curve with a large enough effect; inconclusive = small, poorly fitted or top-dose-only effect; inactive = flat fitted curve, though single readings scatter.
Select the correct class. Options are True = active, False = inactive and nothing else.

Challenge: Fill in: this test's call for CCN(CC)C(=O)/C(C#N)=C/c1cc(O)c(O)c([N+](=O)[O-])c1 is ___
Response given: False

Challenge: Then CCC(=O)c1c(O)cc(O)cc1O ?
Response given: False

Challenge: Then c1ccc(-c2ccc(C(c3ccccc3)n3ccnc3)cc2)cc1 (stereo unspecified) ?
Response given: True

Challenge: Then COc1cc(NS(C)(=O)=O)ccc1Nc1c2ccccc2nc2ccccc12 ?
Response given: True

Challenge: Then O=C(O)CNC(=O)c1ccccc1 ?
Response given: False

Challenge: Then O=C1CCC(c2ccc(-n3ccnc3)cc2)=NN1 ?
Response given: False

Challenge: Then CCN1CCC[C@H]1CNC(=O)c1c(OC)ccc(Br)c1OC ?
Response given: False

Challenge: Then CCn1cc(C(=O)O)c(=O)c2cnc(N3CCCC3)nc21 ?
Response given: False

Challenge: Then C[C@]12CCC(=O)C=C1CC[C@H]1[C@@H]3CC[C@](O)(C(=O)CO)[C@@]3(C)C[C@H](O)[C@@]12F ?
Response given: False

Challenge: Then CCOc1ccc(Cc2nccc3cc(OCC)c(OCC)cc23)cc1OCC ?
Response given: False

Challenge: Then CCN(CC)C(=O)N1CCN(C)CC1 ?
Response given: False

Challenge: Then CCCCCCCCCCCCCCCC[N+](C)(C)CCN(Cc1ccc(OC)cc1)c1ncccn1 ?
Response given: False

Challenge: Then CN=C(NC#N)NCCSCc1csc(N=C(N)N)n1 ?
Response given: False

Challenge: Then CC(C)(C)CC(C)(C)c1ccc(O)c(Cc2ccc(Cl)cc2Cl)c1 ?
Response given: True

Challenge: Then CC(C)COC(=O)OCN1C(=O)CN(CCN2CC(=O)N(COC(=O)OCC(C)C)C(=O)C2)CC1=O ?
Response given: False

Challenge: Then Cc1cc(O)c(C(C)C)cc1Cl ?
Response given: False

Challenge: Then CCOC(=O)/C=C(C)/C=C/C=C(C)/C=C/c1c(C)cc(OC)c(C)c1C ?
Response given: True

Challenge: Then CC(C)(CO)[C@@H](O)C(=O)NCCCO ?
Response given: False

Challenge: Then O=C(OCCOCCO)c1ccccc1Nc1cccc(C(F)(F)F)c1 ?
Response given: False

Challenge: Then C[C@H](O)C(=O)Nc1c(I)c(C(=O)NC(CO)CO)c(I)c(C(=O)NC(CO)CO)c1I ?
Response given: False

Challenge: Then COc1cccc(CCc2ccccc2OCC(CN(C)C)OC(=O)CCC(=O)O)c1 (stereo unspecified) ?
Response given: True

Challenge: Then COCc1c(C(C)C)nc(C(C)C)c(/C=C/[C@@H](O)C[C@@H](O)CC(=O)O)c1-c1ccc(F)cc1 ?
Response given: False

Challenge: Then Cc1c(C)n(Cc2ccccc2)c2ccc(C(=O)OCCN(C)C)cc12 ?
Response given: False

Challenge: Then NC(=NCCCCCCN=C(N)/N=C(\N)Nc1ccc(Cl)cc1)/N=C(\N)Nc1ccc(Cl)cc1 ?
Response given: True

Challenge: Then CN(C)CCCOc1nn(Cc2ccccc2)c2ccccc12 ?
Response given: False

Challenge: Then C1CCc2nnnn2CC1 ?
Response given: False

Challenge: Then CCCCOc1ccc(C(=O)CCN2CCCCC2)cc1 ?
Response given: False

Challenge: Then CCCCOc1ccc(OCCCN2CCOCC2)cc1 ?
Response given: False

Challenge: Then CCCCc1nc(Cl)c(CO)n1Cc1ccc(-c2ccccc2-c2nn[nH]n2)cc1 ?
Response given: True

Challenge: Then COC1=CC(=O)C[C@@H](C)[C@]12Oc1c(Cl)c(OC)cc(OC)c1C2=O ?
Response given: False

Challenge: Then CC(C)NC[C@@H](O)COc1cccc2ccccc12 ?
Response given: True

Challenge: Then CCN(CC)CCOC(=O)C(c1ccccc1)C1CCCCC1 (stereo unspecified) ?
Response given: False

Challenge: Then Oc1c(I)cc(Cl)c2cccnc12 ?
Response given: True

Challenge: Then CC(C)(Oc1ccc(Cl)cc1)C(=O)O ?
Response given: False

Challenge: Then COc1cc(C(=S)N2CCOCC2)cc(OC)c1OC ?
Response given: False

Challenge: Then O=C1[C@H]2CCCC[C@H]2C(=O)N1CCCCN1CCN(c2nsc3ccccc23)CC1 ?
Response given: False

Challenge: Then COc1c2occc2c(OC)c2c(=O)cc(C)oc12 ?
Response given: False

Challenge: Then CC(=O)c1ccc2c(c1)N(CCCN1CCC(CCO)CC1)c1ccccc1S2 ?
Response given: False

Challenge: Then C#C[C@]1(OC(C)=O)CC[C@H]2[C@@H]3CCC4=C[C@@H](OC(C)=O)CC[C@@H]4[C@H]3CC[C@@]21C ?
Response given: False

Challenge: Then NC(=O)C(=O)N/N=C/c1ccc([N+](=O)[O-])o1 ?
Response given: False

Challenge: Then COc1cc2c(cc1OC)C(=O)C(CC1CCN(Cc3ccccc3)CC1)C2 (stereo unspecified) ?
Response given: False

Challenge: Then CN(C)/N=N/c1nc[nH]c1C(N)=O ?
Response given: False

Challenge: Then CC(=O)OCC(=O)NCCCOc1cccc(CN2CCCCC2)c1 ?
Response given: False

Challenge: Then COc1ccc(CN2CCN(C(c3ccc(F)cc3)c3ccc(F)cc3)CC2)c(OC)c1OC ?
Response given: True

Challenge: Then CC1=C(C(=O)OC(C)C)C(c2cccc([N+](=O)[O-])c2)C(C(=O)OC2CN(C(c3ccccc3)c3ccccc3)C2)=C(N)N1 (stereo unspecified) ?
Response given: True

Challenge: Then COc1ccc(/C=C/C(=O)c2ccc(OC)cc2OC)cc1 ?
Response given: True

Cited source: PubChem BioAssay (NCATS)
